Molecular target: human Fab of κ-type (Homo sapiens, UniProt P01834+P01857)
Sequence (P01857 with tags, fused parts or gaps, other chains not shown): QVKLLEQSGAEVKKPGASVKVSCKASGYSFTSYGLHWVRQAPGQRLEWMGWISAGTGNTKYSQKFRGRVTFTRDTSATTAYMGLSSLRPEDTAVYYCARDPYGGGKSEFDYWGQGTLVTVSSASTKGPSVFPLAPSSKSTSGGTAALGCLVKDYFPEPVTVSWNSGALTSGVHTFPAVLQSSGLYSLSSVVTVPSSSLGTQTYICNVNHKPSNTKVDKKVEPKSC
Test: STD NMR screening (1D saturation transfer difference) for binding to antibody
Set-up: key: 0 no; 1 weak; 2 strong signal
Conditions: 100 nM antibody, 0.5 mM ligand

- compound: "Cc1cc(C)nc(SCC(=O)Nc2ccc(F)c(Cl)c2)n1 [AB_0000580]"
  NMR signal conc 2: 0
- compound: "CC(C)=CC1=C(O)C(=O)c2ccccc2C1=O [AB_0001040]"
  NMR signal conc 2: 1
- compound: "FC(F)(F)c1cccc(-n2ccnc2)c1 [AB_0001220, 1-(3-trifluoromethylphenyl)imidazole]"
  NMR signal conc 2: 0
- compound: "O=C(c1cccs1)c1cnc2ccccn2c1=O [AB_0001300]"
  NMR signal conc 2: 0

All values here come from patent US20090138208A1.
